study_target: B-Raf (V600E) (SEQ. ID NO: 4) kinase (Homo sapiens (Human), UniProt P15056, V600E)
Sequence (P15056 416-766 V600E): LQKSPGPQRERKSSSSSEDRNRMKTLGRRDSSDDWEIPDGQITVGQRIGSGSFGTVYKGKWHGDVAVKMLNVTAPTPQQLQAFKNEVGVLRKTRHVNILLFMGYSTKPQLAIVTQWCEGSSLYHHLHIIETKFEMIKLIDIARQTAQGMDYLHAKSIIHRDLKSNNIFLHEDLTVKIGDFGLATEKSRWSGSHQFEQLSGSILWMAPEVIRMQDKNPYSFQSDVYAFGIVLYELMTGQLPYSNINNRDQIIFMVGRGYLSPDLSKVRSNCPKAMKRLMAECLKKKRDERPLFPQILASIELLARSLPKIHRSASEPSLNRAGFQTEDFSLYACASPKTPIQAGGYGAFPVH
assay_name: Biochemical Assay for B-Raf (V600E) (1)
condition: Table J, BRAF V600E, assay version (1); read-out: BRAF VE (1) IC50
observation_type: IC50

Query: IC50; subject: CC(=O)Nc1cc(-c2cc(-c3cc(NC(=O)c4ccnc(C(F)(F)F)c4)ccc3C)nc(N(C)C)n2)ccn1 [Example 41] ≤ 100 nM

Query: IC50; subject: Cc1ncc(NC(=O)c2ccnc(C(C)(C)C#N)c2)cc1-c1nccc(-c2ccnc3c2CC(=O)N3)n1 [Example 93] 100 to 500 nM

Query: IC50; subject: CC(=O)Nc1cc(-c2cc(-c3cc(NC(=O)c4ccnc(C(F)(F)F)c4)ccc3C)cc(C3CC3)n2)ccn1 [Example 14] ≤ 100 nM

Query: IC50; subject: Cc1ccc(NC(=O)c2ccnc(C(C)(C)C#N)c2)cc1-c1cccc(-c2ccnc3[nH]ncc23)c1 [Example 134] ≤ 100 nM

Query: IC50; subject: Cc1ncc(NC(=O)C2CCOCC2)cc1-c1cccc(-c2cc(NC(=O)C3CC3)ncn2)c1 [Example 349] 100 to 500 nM

Query: IC50; subject: CNC(=O)c1cc(-c2cnnc(-c3cc(NC(=O)CCC(C)(C)C#N)cnc3C)c2)ccn1 [Example 333] 1000 to 10000 nM

Query: IC50; subject: Cc1ncc(NC(=O)c2ccnc(C3CC3)c2)cc1-c1nccc(-c2ccnc(NC(=O)C3CC3)c2)n1 [Example 295] ≤ 100 nM

Query: IC50; subject: Cc1ccc(NC(=O)c2ccnc(C(C)(C)C#N)c2)cc1-c1cc(-c2ccnc(C(=O)NC3CC3)c2)cnn1 [Example 372] 100 to 500 nM

Query: IC50; subject: Cc1ncc(NC(=O)c2ccnc(C(C)(C)C#N)c2)cc1-c1cccc(-c2ncnc3[nH]ncc23)c1 [Example 129] ≤ 100 nM

Query: IC50; subject: CC(=O)Nc1cc(-c2nccc(-c3cc(NC(=O)c4ccnc(C(F)(F)F)c4)c(F)cc3C)n2)ccn1 [Example 107] ≤ 100 nM

Query: IC50; subject: Cc1ccc(NC(=O)c2ccnc(C(F)(F)F)c2)cc1-c1cc(-c2ccnc(NC(=O)C3CC3)c2)n(C)c(=O)c1 [Example 13] ≤ 100 nM

Query: IC50; subject: Cc1ccc(NC(=O)c2ccnc(C3(C#N)CC3)c2)cc1-c1cccc(-c2cc(NC(=O)C3CC3)ncn2)c1 [Example 203] ≤ 100 nM

Query: IC50; subject: CC(=O)Nc1cc(-c2nccc(-c3cc(NC(=O)c4cccc(C(C)(C)C#N)c4)ccc3C)n2)ccn1 [Example 150] ≤ 100 nM

Query: IC50; subject: COCC(=O)Nc1cc(-c2cncc(-c3cc(NC(=O)c4ccnc(C(F)(F)F)c4)ccc3C)n2)ccn1 [Example 99] ≤ 100 nM

Query: IC50; subject: CC(=O)Nc1cc(-c2cncc(-c3cc(C(=O)Nc4cnn(C(C)C)c4)ccc3C)n2)ccn1 [Example 87] ≤ 100 nM

Query: IC50; subject: Cc1ccc(NC(=O)C2CCN(C)C2)cc1-c1cccc(-c2cc(NC(=O)C3CC3)ncn2)c1 (stereo not shown) [Example 344] 100 to 500 nM

Query: IC50; subject: CNC(=O)c1cc(-c2cccc(-c3cc(NC(=O)c4ccnc(C(F)(F)F)c4)cnc3C)c2)ccn1 [Example 73] ≤ 100 nM

Query: IC50; subject: Cc1ccc(NC(=O)c2ccnc(C(C)(C)C#N)c2)cc1-c1cc(-c2cc(NC(=O)C3CC3)ncn2)cc(C2CC2)c1 [Example 216] ≤ 100 nM

Query: IC50; subject: Cc1nc(-c2ccnc(NC(=O)C3CC3)c2)cc(-c2cc(NC(=O)c3ccnc(C4(C#N)CC4)c3)cnc2C)n1 [Example 286] ≤ 100 nM

Query: IC50; subject: Cc1ncc(NC(=O)c2ccnc(C(C)(C)C#N)c2)cc1-c1cccc(-c2cc(NC(=O)C3CC3)ncn2)n1 [Example 226] 100 to 500 nM

Query: IC50; subject: Cc1ccc(NC(=O)c2ccnc(C(C)(C)C#N)c2)cc1-c1cncc(-c2ccnc3c2CC(=O)N3)n1 [Example 43] ≤ 100 nM

Query: IC50; subject: CNC(=O)c1cc(-c2cccc(-c3cc(NC(=O)c4ccnc(C(C)(C)C#N)c4)cnc3C)c2)ncn1 [Example 204] ≤ 100 nM

----------
study_target: B-Raf kinase (SEQ. ID NO: 2) (Homo sapiens (Human))
assay_name: Biochemical Assay for B-Raf (1)
condition: Table J, assay version (1); read-out: BRAF (1) IC50
observation_type: IC50

Query: IC50; subject: CC(=O)Nc1cc(-c2cc(-c3cc(NC(=O)c4ccnc(C(F)(F)F)c4)c(F)cc3C)cc(=O)n2C)ccn1 [Example 155] 100 to 500 nM

Query: IC50; subject: CNC(=O)c1cc(-c2cc(-c3cc(NC(=O)c4ccnc(C(F)(F)F)c4)ccc3C)cc(C3CC3)n2)ccn1 [Example 27] 100 to 500 nM

Query: IC50; subject: Cc1cc(F)c(NC(=O)c2ccnc(C(C)(C)C#N)c2)cc1-c1ccnc(-c2ccnc(NC=O)c2)c1 [Example 104] ≤ 100 nM

Query: IC50; subject: CNC(=O)c1cc(-c2cc(-c3cc(NC(=O)c4cc(C(F)(F)F)ccn4)ccc3C)ccn2)ccn1 [Example 126] 100 to 500 nM

Query: IC50; subject: CNC(=O)c1cc(-c2cncc(-c3cc(NC(=O)c4ccnc(C(C)(C)C#N)c4)c(F)cc3C)n2)ccn1 [Example 170] 100 to 500 nM

----------
Provide the recorded pIC50 for the entries that follow.
study_target: B-Raf kinase (SEQ. ID NO: 2) (Homo sapiens (Human), UniProt P15056)
Sequence (P15056 416-766): as the sequence (P15056 416-766 V600E) above, with E185V counted along it
assay_name: Biochemical Assay for B-Raf (1)
condition: Table J, assay version (1); read-out: BRAF (1) IC50
pIC50: −log10 of the molar value.

Query: pIC50; subject: CC(=O)Nc1nccc(-c2cccc(-c3cc(NC(=O)c4ccnc(C(F)(F)F)c4)ccc3C)c2)c1C#N [Example 132] 6.30 to 7.00

Query: pIC50; subject: COC(=O)Nc1cc(-c2cc(-c3cc(NC(=O)c4ccnc(C(F)(F)F)c4)cnc3C)ccn2)ccn1 [Example 312] ≥ 7.00

Query: pIC50; subject: Cc1ccc(NC(=O)c2ccnc(C(F)(F)F)c2)cc1-c1ccnc(-c2ccnc(N)c2)n1 [Example 122] ≥ 7.00

Query: pIC50; subject: CNC(=O)c1cc(-c2nccc(-c3cc(NC(=O)c4ccnc(C(F)(F)F)c4)ccc3C)n2)ccn1 [Example 25] ≥ 7.00

Query: pIC50; subject: Cc1ccc(NC(=O)c2ccnc(C(C)(C)C#N)c2)cc1-c1ccnc(-c2ccnc(NC(=O)C3CC3)c2)n1 [Example 257] ≥ 7.00

Query: pIC50; subject: Cc1ccc(NC(=O)C23CCC(C#N)(CC2)CC3)cc1-c1ccnc(-c2ccnc(NC(=O)C3CC3)c2)n1 [Example 340] 5.00 to 6.00

Query: pIC50; subject: CC(=O)Nc1cc(-c2cc(-c3cc(NC(=O)c4ccnc(C(F)(F)F)c4)ccc3C)cc(C(C)(C)O)n2)ccn1 [Example 33] 5.00 to 6.00

Query: pIC50; subject: CNC(=O)c1cc(-c2nccc(-c3cc(NC(=O)c4ccnc(C(C)(C)C#N)c4)ccc3C)n2)ccn1 [Example 78] 6.30 to 7.00

Query: pIC50; subject: Cc1ccc(NC(=O)c2ccnc(C(F)(F)F)c2)cc1-c1cncc(-c2ccnc(NC=O)c2)n1 [Example 123] ≥ 7.00

----------
Tested on: Miapaca-2 cells
assay_name: MiaPaca-2 Combination Cell proliferation Assay (1) with cobimetinib
Type: cell-based
condition: MiaPaca-2 cell proliferation, read-out: MiaPaca-2 Combo (1) IC50
observation_type: IC50

Query: IC50; subject: Cc1ncc(NC(=O)c2cnn(C(C)(C)C)c2)cc1-c1cccc(-c2cc(NC(=O)C3CC3)ncn2)c1 [Example 279] ≤ 100 nM

Query: IC50; subject: Cc1ccc(NC(=O)c2ccnc(C(C)(C)C#N)c2)cc1-c1cccc(-c2cc(NC(=O)C3(C)CC3)ncn2)c1 [Example 197] 100 to 500 nM

Query: IC50; subject: COCC(=O)Nc1cc(-c2cc(-c3cc(NC(=O)c4ccnc(C(C)(C)C#N)c4)ccc3C)ccn2)ccn1 [Example 61] ≤ 100 nM

Query: IC50; subject: Cc1ccc(NC(=O)c2ccnc(C(C)(C)C#N)c2)cc1-c1ccnc(-c2ccnc(NC(=O)CC#N)c2)c1 [Example 63] 100 to 500 nM

Query: IC50; subject: Cc1ccc(NC(=O)c2ccnc(C(C)(C)C#N)c2)cc1-c1ccnc(-c2ccnc3c2CC(=O)N3)c1 [Example 23] 100 to 500 nM

----------
Provide the recorded IC50 for the entries that follow.
study_target: B-Raf (V600E) (SEQ. ID NO: 4) kinase (Homo sapiens (Human), UniProt P15056, V600E)
assay_name: Biochemical Assay for B-Raf (V600E) (1)
condition: Table J, BRAF V600E, biochemical assay (1); read-out: BRAF VE (1)

Query: IC50; subject: Cc1ccc(NC(=O)c2cn(C(C)C)nc2C)cc1-c1cc(-c2ccnc(NC(=O)C3CC3)c2)cnn1 100 to 500 nM

Query: IC50; subject: COC(=O)Nc1cc(-c2cncc(-c3cc(NC(=O)c4ccnc(C5(C#N)CC5)c4)ccc3C)c2)ncn1 ≤ 100 nM

Query: IC50; subject: Cc1ccc(NC(=O)c2cnn(C3CC3)c2)cc1-c1cncc(-c2cc(NC(=O)C3CC3)ncn2)c1 ≤ 100 nM

Query: IC50; subject: CNC(=O)c1cc(-c2cncc(-c3cc(NC(=O)c4ccnc(C5(C#N)CC5)c4)ccc3C)c2)ncn1 ≤ 100 nM

Query: IC50; subject: Cc1ccc(NC(=O)c2cc(C3CC3)n(C)n2)cc1-c1nccc(-c2ccnc(NC(=O)C3CC3)c2)n1 ≤ 100 nM

Query: IC50; subject: COc1ccc(NC(=O)c2ccnc(C(C)(C)C#N)c2)cc1-c1cccc(-c2cc(NC(=O)C3CC3)ncn2)c1 ≤ 100 nM

Query: IC50; subject: Cc1ccc(NC(=O)c2ccnc(C3(C#N)CC3)c2)cc1-c1cncc(-c2cc(NC(=O)C3CC3)ncn2)c1 ≤ 100 nM

Query: IC50; subject: Cc1ccc(NC(=O)c2ccnc(C(C)(C)F)c2)cc1-c1cc(-c2ccnc3[nH]ncc23)cnn1 100 to 500 nM

Query: IC50; subject: Cc1ccc(NC(=O)c2ccnc(C(F)(F)F)c2)cc1-c1cncc(-c2cc(NC(=O)C3CC3)ncn2)c1 ≤ 100 nM

Query: IC50; subject: Cc1ncc(NC(=O)c2ccnc(C(C)(C)C#N)c2)cc1-c1cccc(-c2cnc3ccccn23)c1 100 to 500 nM

Query: IC50; subject: Cc1ccc(NC(=O)c2ccnc(C(C)(F)F)c2)cc1-c1cncc(-c2cc(NC(=O)C3CC3)ncn2)c1 ≤ 100 nM

Query: IC50; subject: Cc1cc(F)c(NC(=O)c2ccnc(C3CC3)c2)cc1-c1cncc(-c2cc(NC(=O)C3CC3)ncn2)c1 ≤ 100 nM

Query: IC50; subject: Cc1cc(F)c(NC(=O)c2ccnc(C(C)(C)F)c2)cc1-c1cncc(-c2cc(NC(=O)C3CC3)ncn2)c1 ≤ 100 nM

Reference source: patent US12319655B2
